This listing pairs sequences with measured pKd.
Tested on: hADAR2-R2D E488Q E488Q (Homo sapiens), P78563-2
Sequence: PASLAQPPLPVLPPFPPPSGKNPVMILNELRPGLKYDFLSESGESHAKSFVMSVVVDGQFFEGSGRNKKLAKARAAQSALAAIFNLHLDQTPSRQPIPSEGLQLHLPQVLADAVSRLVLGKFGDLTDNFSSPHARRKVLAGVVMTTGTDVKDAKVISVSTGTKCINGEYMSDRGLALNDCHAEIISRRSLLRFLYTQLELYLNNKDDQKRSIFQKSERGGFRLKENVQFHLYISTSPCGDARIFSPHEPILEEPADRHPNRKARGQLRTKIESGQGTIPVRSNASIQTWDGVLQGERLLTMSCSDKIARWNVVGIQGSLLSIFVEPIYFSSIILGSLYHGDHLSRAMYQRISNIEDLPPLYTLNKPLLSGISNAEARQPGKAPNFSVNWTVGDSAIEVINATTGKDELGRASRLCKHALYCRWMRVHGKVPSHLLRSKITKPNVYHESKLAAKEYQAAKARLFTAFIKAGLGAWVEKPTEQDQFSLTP
Experiment Description: EMSA
Cond: N at position 13 of strand 1 = 8-azanebularine; EMSA: labeled strand hybridized to complement 1:3 in 1X TE pH 7.5; protein 0.25-256 nM (GG) or 0-260 nM (UA); binding buffer, salt and temperature not given in …
pKd: −log10 of the molar value.
Readout Label: pKd

Construct Sequence	Readout Label	Endpoint Result
GCUCGCGAUGCUNGAGGGCUCUGAUAGCUACG / CGUAGCUAUCAGAGCCCCCCAGCAUCGCGAGC [GLI1 (UA) 32mer, azaN]	pKd	9.05
GCUCGCGAUGCGNGAGGGCUCUGAUAGCUACG / CGUAGCUAUCAGAGCCCCCCGGCAUCGCGAGC [GLI1 (GG) 32mer, azaN]	pKd	8.22
